- Tested on: BT474 (human breast carcinoma)
- ASSAY INFO: In vitro tumor cell proliferation assay (Cell Titer-Glo luminescent cell viability), BT474
- Format: cell-based
- CONDITION LABEL: BT-474, 72 h, BT474 cells, 72 hours of drug exposure, ATP luminescence readout, read-out: IC50, anti-proliferative activity (inhibition of cell proliferation)
pIC50: −log10 of the molar value.
MEASUREMENT KIND: pIC50

Give the reported value of pIC50 for this record: "Fc1cccc(COc2ccc(Nc3ncnc4sc5c(c34)CCc3c-5cnn3CCNCCN3CCOCC3)cc2Cl)c1"
≥ 5.30

Look up pIC50 of "OCCCn1ncc2c1CCc1c-2sc2ncnc(Nc3ccc(OCc4cccc(F)c4)c(Cl)c3)c12" and report it.
≥ 6.00

Output measured pIC50 for this item: "OCCn1cc2c(n1)CCc1c-2sc2ncnc(Nc3ccc4c(cnn4Cc4cccc(F)c4)c3)c12"
≥ 6.00

Report pIC50 for "COCCN(C)CCn1cc2c(n1)CCc1c-2sc2ncnc(Nc3ccc(OCc4cccc(F)c4)c(Cl)c3)c12"
≥ 6.00

###

- Test system: BT474 (human breast carcinoma)
- ASSAY INFO: In vitro tumor cell proliferation assay (Cell Titer-Glo luminescent cell viability), BT474
- Type: cell-based
- CONDITION LABEL: BT-474, 72 h, BT474 cells, 72 hours of drug exposure, ATP luminescence readout, read-out: IC50, anti-proliferative activity (inhibition of cell proliferation)
Could you please report measured IC50 for the items listed next?

Write down IC50 measured for item "Clc1cc(Nc2ncnc3sc4c(c23)CCc2c-4cnn2CCBr)ccc1OCc1ccccn1"
≤ 1000 nM

Output measured IC50 for this item: "Fc1cccc(COc2ccc(Nc3ncnc4sc5c(c34)CCc3nn(CCC4CCNCC4)cc3-5)cc2Cl)c1"
≤ 1000 nM

Look up and report measured IC50 for this entry: "O=C(Cn1ncc2c1CCc1c-2sc2ncnc(Nc3ccc(OCc4cccc(F)c4)c(Cl)c3)c12)N1CCC(O)CC1"
≤ 1000 nM

Please give measured IC50 of the following entry: "CN(C)[C@@H]1CCN(CCn2cc3c(n2)CCc2c-3sc3ncnc(Nc4ccc(OCc5cccc(F)c5)c(Cl)c4)c23)C1"
≤ 1000 nM

###

Would you mind telling me the reported IC50 of each entry?
- Test system: BT474 (human breast carcinoma)
- ASSAY INFO: In vitro tumor cell proliferation assay (Cell Titer-Glo luminescent cell viability), BT474
- Assay type: cell-based
- CONDITION LABEL: BT-474, 72 h, BT474 cells, 72 hours of drug exposure, ATP luminescence readout, read-out: IC50, anti-proliferative activity (inhibition of cell proliferation)
Where a name gives a salt, the structure may show the parent alone.

Please list IC50 recorded for the compound CCCn1cc2c(n1)CCc1c-2sc2ncnc(Nc3ccc(OCc4cccc(F)c4)c(Cl)c3)c12 [Example 130, trifluoroacetate]
≤ 5000 nM

Please look at this compound and report its IC50: CN1CCN(CCCn2ncc3c2CCc2c-3sc3ncnc(Nc4ccc(OCc5cccc(F)c5)c(Cl)c4)c23)CC1 [Example 269]
≤ 1000 nM

# return recorded IC50 for input Cc1cc(Nc2ncnc3sc4c(c23)CCc2c-4cnn2CCN2CCN(C)CC2)ccc1OCc1cccc(F)c1 [Example 323]
≤ 1000 nM

Give the value of IC50 reported for the following: OCCNCCn1cc2c(n1)CCc1c-2sc2ncnc(Nc3ccc(OCc4cccc(F)c4)c(Cl)c3)c12 [Example 61]
≤ 1000 nM

Answer with the recorded IC50 of CN(C)C1CCN(CCn2ncc3c2CCc2c-3sc3ncnc(Nc4ccc(OCc5cccc(F)c5)c(Cl)c4)c23)C1 (stereo not shown) [Example 267, trifluoroacetate] only.
≤ 1000 nM

Could you please provide reported IC50 for CN1CCN(C(=O)Cn2ncc3c2CCc2c-3sc3ncnc(Nc4ccc(OCc5cccc(F)c5)c(Cl)c4)c23)CC1 [Example 205] ? Thanks!
≤ 1000 nM

Answer with reported IC50 of COC(=O)[C@@H]1CCCN1CCn1cc2c(n1)CCc1c-2sc2ncnc(Nc3ccc(F)c(Cl)c3)c12 [Example 34]
≤ 5000 nM

###

Kindly state pIC50 for each of the entries shown.
- Test system: BT474 (human breast carcinoma)
- ASSAY INFO: In vitro tumor cell proliferation assay (Cell Titer-Glo luminescent cell viability), BT474
- Format: cell-based
- CONDITION LABEL: BT-474, 72 h, BT474 cells, 72 hours of drug exposure, ATP luminescence readout, read-out: IC50, anti-proliferative activity (inhibition of cell proliferation)
pIC50: −log10 of the molar value. Structures can show the parent of a compound that is named as a salt.

Give pIC50 for "COCCNCCn1cc2c(n1)CCc1c-2sc2ncnc(Nc3ccc(F)c(Cl)c3)c12"
≥ 5.30

Fill in pIC50 for record "O=C(O)Cn1cc2c(n1)CCc1c-2sc2ncnc(Nc3ccc(OCc4cccc(F)c4)c(Cl)c3)c12"
≥ 5.30

Return value of pIC50 for input "CC(C)N1CCC(Cn2cc3c(n2)CCc2c-3sc3ncnc(Nc4ccc(OCc5cccc(F)c5)c(Cl)c4)c23)CC1" , no commentary.
≥ 6.00

Supply reported pIC50 belonging to this molecule: "COCCN(C)CCn1cc2c(n1)CCc1c-2sc2ncnc(Nc3ccc(F)c(Cl)c3)c12"
≥ 5.30

Item "COCCNCCn1ncc2c1CCc1c-2sc2ncnc(Nc3ccc(OCc4ccccn4)c(Cl)c3)c12" : provide pIC50
≥ 6.00

Determine from records and report pIC50 for "COCCNC[C@@H](O)Cn1cc2c(n1)CCc1c-2sc2ncnc(Nc3ccc(OCc4cccc(F)c4)c(Cl)c3)c12"
≥ 6.00

Quickly give me recorded pIC50 for "Cc1cccc(COc2ccc(Nc3ncnc4sc5c(c34)CCc3nn(CCN4CCN(C)CC4)cc3-5)cc2Cl)n1"
≥ 5.30

Output pIC50 of O[C@H](CN1CCCC1)Cn1cc2c(n1)CCc1c-2sc2ncnc(Nc3ccc(OCc4cccc(F)c4)c(Cl)c3)c12 [Example 149, trifluoroacetate]
≥ 6.00

Give the value of pIC50 reported for the following: "OCCNCCn1cc2c(n1)CCc1c-2sc2ncnc(Nc3ccc4c(cnn4Cc4cccc(F)c4)c3)c12"
≥ 6.00

Indicate its recorded pIC50; the molecule in question is "c1ccc(Cn2ncc3cc(Nc4ncnc5sc6c(c45)CCc4nn(CCN5CCOCC5)cc4-6)ccc32)cc1"
≥ 6.00

Determine its reported pIC50: "CC(C)(C)[Si](C)(C)OCCn1cc2c(n1)CCc1c-2sc2ncnc(Nc3ccc(OCc4ccccc4)c(Cl)c3)c12"
≥ 5.30

Give me measured pIC50, please, for this molecule: "O=C(CN(CCO)CCO)N1CCC(Cn2cc3c(n2)CCc2c-3sc3ncnc(Nc4ccc(OCc5cccc(F)c5)c(Cl)c4)c23)CC1"
≥ 6.00

Read the entry "Fc1cccc(COc2ccc(Nc3ncnc4sc5c(c34)CCc3nn(CCn4ccnc4)cc3-5)cc2Cl)c1" and write its reported pIC50.
≥ 6.00

Write down pIC50 measured for item COCCN1CCN(CCn2ncc3c2CCc2c-3sc3ncnc(Nc4ccc(OCc5cccc(F)c5)c(Cl)c4)c23)CC1 [Example 265, trifluoroacetate]
≥ 6.00

###

- System: BT474 (human breast carcinoma)
- ASSAY INFO: In vitro tumor cell proliferation assay (Cell Titer-Glo luminescent cell viability), BT474
- Assay type: cell-based
- CONDITION LABEL: BT-474, 72 h, BT474 cells, 72 hours of drug exposure, ATP luminescence readout, read-out: IC50, anti-proliferative activity (inhibition of cell proliferation)
pIC50: −log10 of the molar value. Structures can show the parent of a compound that is named as a salt.
Please provide measured pIC50 for the entries that follow.

Return value of pIC50 for input "CNC(=O)Cn1ncc2c1CCc1c-2sc2ncnc(Nc3ccc(OCc4cccc(F)c4)c(Cl)c3)c12" , no commentary.
≥ 6.00

Read off the recorded pIC50 for OCCN(CCO)C[C@@H](O)Cn1ncc2c1CCc1c-2sc2ncnc(Nc3ccc(OCc4cccc(F)c4)c(Cl)c3)c12 [Example 172, trifluoroacetate]
≥ 6.00

Respond only with pIC50 recorded for CCN(CC)C[C@@H](O)Cn1cc2c(n1)CCc1c-2sc2ncnc(Nc3ccc(OCc4cccc(F)c4)c(Cl)c3)c12 [Example 158, trifluoroacetate]
≥ 5.30

###

- Test system: BT474 (human breast carcinoma)
- ASSAY INFO: In vitro tumor cell proliferation assay (Cell Titer-Glo luminescent cell viability), BT474
- Assay type: cell-based
- CONDITION LABEL: BT-474, 72 h, BT474 cells, 72 hours of drug exposure, ATP luminescence readout, read-out: IC50, anti-proliferative activity (inhibition of cell proliferation)
Structures can show the parent of a compound that is named as a salt.
MEASUREMENT KIND: IC50

Give a short answer stating reported IC50 for "Clc1cc(Nc2ncnc3sc4c(c23)CCc2nn(CCBr)cc2-4)ccc1OCc1ccccn1" .
≤ 1 µM

State, in one line, measured IC50 of C[N+]1(C)CCC(n2cc3c(n2)CCc2c-3sc3ncnc(Nc4ccc(OCc5cccc(F)c5)c(Cl)c4)c23)CC1 [Example 225, trifluoroacetate]
≤ 5 µM

Please give the documented IC50 of "CS(=O)(=O)CCNCCn1cc2c(n1)CCc1c-2sc2ncnc(Nc3ccc(OCc4ccccn4)c(Cl)c3)c12"
≤ 1 µM

Give reported IC50 value for "CCN(CCOC)CCn1cc2c(n1)CCc1c-2sc2ncnc(Nc3ccc(F)c(Cl)c3)c12"
≤ 5 µM

Give the measured IC50 for "COCCN1CCN(C[C@@H](O)Cn2ncc3c2CCc2c-3sc3ncnc(Nc4ccc(OCc5cccc(F)c5)c(Cl)c4)c23)CC1"
≤ 1 µM

Note down IC50 recorded for "OCCN(CCO)CCn1ncc2c1CCc1c-2sc2ncnc(Nc3ccc(OCc4cccc(F)c4)c(Cl)c3)c12"
≤ 1 µM

Check the records and state IC50 for "Fc1ccc(Nc2ncnc3sc4c(c23)CCc2nn(CCN3CCSCC3)cc2-4)cc1Cl"
≤ 5 µM
